Target: T1, human podocalyxin (human, UniProt O00592 23-558)
T1 construct: also called hPodo; hPodocalyxin
T1 sequence: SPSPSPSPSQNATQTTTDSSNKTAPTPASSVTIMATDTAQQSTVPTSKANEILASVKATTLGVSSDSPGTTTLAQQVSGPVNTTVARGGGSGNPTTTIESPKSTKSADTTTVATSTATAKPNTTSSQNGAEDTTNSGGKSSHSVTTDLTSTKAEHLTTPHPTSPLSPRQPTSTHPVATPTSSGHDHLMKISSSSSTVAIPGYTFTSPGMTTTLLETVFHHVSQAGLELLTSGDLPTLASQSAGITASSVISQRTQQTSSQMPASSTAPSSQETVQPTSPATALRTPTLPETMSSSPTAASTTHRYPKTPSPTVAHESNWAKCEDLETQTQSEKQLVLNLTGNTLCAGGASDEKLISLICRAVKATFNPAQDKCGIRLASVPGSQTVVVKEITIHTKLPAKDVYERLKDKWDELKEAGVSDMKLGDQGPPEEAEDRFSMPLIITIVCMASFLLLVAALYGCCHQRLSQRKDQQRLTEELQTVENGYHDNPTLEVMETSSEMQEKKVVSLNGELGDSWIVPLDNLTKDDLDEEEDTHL
Assay: flow cytometry, supernatant 2:15 (so in the source), MDA-MB-231 cells
Measure Name: flow cytometry fluorescence (name not given)
When you answer, write just the number.

q: Item huPodo 83 2:1 (humanized anti-podocalyxin antibody 83, version 2) (antibody, V domains shown, Cloned into pTT5 plasmids with human IgG heavy chain and human Ig kappa constant regions) VH: EVQLVESGGGLVQPGGSLRLSCAASGIDLSSYAMGWVRQAPGKGLEWVSFIYASGSIFYASWAKGRFTISRDNSNTLYLQMNSLRAEDTAVYYCARAGYYFGGNYDLNLWGQGTLVTVSS VL: DIQMTQSPSSLSASVGDRVTITCQASQSISNYLAWYQQKPGKVPKLLIYRASTLASGVPSRFSGSGSGTDFTLTISSLQPEDVATYYCQQGYVSNNLDNIFGGGTEVVVK has what recorded flow cytometry fluorescence (name not given)?
a: 67200

The measurements presented in this section are drawn from patent US20190367606A1.
